# EXPERIMENTAL_PROTOCOL: recombinant barcode read abundance after kanamycin selection (control-corrected) (log10(CPM+1)); higher = more efficient recombination; sequences stand for … in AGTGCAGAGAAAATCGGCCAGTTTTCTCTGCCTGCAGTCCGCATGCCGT…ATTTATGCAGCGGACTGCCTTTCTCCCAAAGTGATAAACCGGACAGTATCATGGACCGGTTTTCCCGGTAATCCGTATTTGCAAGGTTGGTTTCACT; site = the 11-nt target
Would you mind classing the entries by recombinant barcode read abundance (log10)? Ranges: LOW: < 0.1; MID: ≥ 0.1 and < 0.2; HIGH: ≥ 0.2

Here's what some known entries look like.
GGGAGCCCGTGGGTTCTAACCTGTTGCTGCG [GGGAGCCCTCA_LTGcore_CG_RTGcore_CG] (site GGGAGCCCTCA) (LTG core: CG, RTG core: CG): MID
GAGGCCTCGTGGGTTCTAACCTGTTGCCACG [GAGGCCTCTTG_LTGcore_CG_RTGcore_CG] (site GAGGCCTCTTG) (LTG core: CG, RTG core: CG): MID
TAGAGGGAGTGGGTTCTAACCTGTTGCGGAG [TAGAGGGCTCC_LTGcore_AG_RTGcore_CT] (site TAGAGGGCTCC) (LTG core: AG, RTG core: CT): LOW
AAACACACTTGGGTTCTAACCTGTTGCCTTA [AAACACACTAG_LTGcore_CT_RTGcore_TA] (site AAACACACTAG) (LTG core: CT, RTG core: TA): HIGH
AGGCGGGGCTGGGTTCTAACCTGTTGCGGAG [AGGCGGGCTCC_LTGcore_GC_RTGcore_CT] (site AGGCGGGCTCC) (LTG core: GC, RTG core: CT): HIGH
AAACATGACTGGGTTCTAACCTGTTGCCTGT [AAACATGCTAG_LTGcore_AC_RTGcore_AC] (site AAACATGCTAG) (LTG core: AC, RTG core: AC): MID
AGGAGGTCTTGGGTTCTAACCTGTTGCCTTA [AGGAGGTCTAG_LTGcore_CT_RTGcore_TA] (site AGGAGGTCTAG) (LTG core: CT, RTG core: TA): HIGH
AAACAGTAATGGGTTCTAACCTGTTGCCTAG [AAACAGTCTAG_LTGcore_AA_RTGcore_CT] (site AAACAGTCTAG) (LTG core: AA, RTG core: CT): LOW
GAGCCCATCTGGGTTCTAACCTGTTGCCTGA [GAGCCCACTAG_LTGcore_TC_RTGcore_TC] (site GAGCCCACTAG) (LTG core: TC, RTG core: TC): LOW

Alright, here's another sequence for you.
Req: Hey, which category is TGATACCGATGGGTTCTAACCTGTTGCGTAG [TGATACCCTAC_LTGcore_GA_RTGcore_CT] (site TGATACCCTAC) (LTG core: GA, RTG core: CT) in, do you know?
Resp: HIGH

###

# EXPERIMENTAL_PROTOCOL: recombinant UMI read abundance after kanamycin selection (control-corrected) (log10(CPM+1)); higher = more efficient recombination; extreme values may be limits of the assay; sequences stand for … in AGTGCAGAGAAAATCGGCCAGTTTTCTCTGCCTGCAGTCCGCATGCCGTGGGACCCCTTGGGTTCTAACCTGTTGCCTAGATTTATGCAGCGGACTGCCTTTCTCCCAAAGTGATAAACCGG…AGGTTGGTTTCACT; site = the 11-nt donor
Threshold check on recombinant UMI read abundance (log10): at or above 0.7 gives Met, strictly below gives Not met.

TAGGCATCATGGACCGGTTTTCCCGGTAATCCGTATTTGCG (site TAGGGATCTCG): Not met

Req: Determine whether measured recombinant UMI read abundance (log10) meets or exceeds 0.7 for CGATAGACATGGACCGGTTTTCCCGGTAATCCGTATTTGTT (site CGATAGACTAA)
Resp: Met

Req: Determine whether measured recombinant UMI read abundance (log10) meets or exceeds 0.7 for GGATATACATGGACCGGTTTTCCCGGTAATCCGTATTTGCC (site GGATACACTGG)
Resp: Met

Req: Determine whether measured recombinant UMI read abundance (log10) meets or exceeds 0.7 for ATGTAGGCATGGACCGGTTTTCCCGGTAATCCGTATTTGGT (site ATGTAGGCTTC)
Resp: Not met
